All figures here come from ChEMBL document CHEMBL1133358.

biological target: UniProtKB P00734
metric: Ki (µM)
Write down the numeric answer in µM and omit the unit.

Input: Please give measured Ki of the following entry: CC(=N)N1CCC(N(C(=O)CCC(=O)O)c2ccc3nc(C)n(Cc4ccc5ccc(C(=N)N)cc5c4)c3c2)CC1
Output: 5

Input: Report Ki, nothing else, for this compound: CC(=N)N1CCC(Oc2ccc3c(c2)nc(C)n3Cc2ccc3ccc(C(=N)N)cc3c2)CC1
Output: 3.9

Input: Report measured Ki; entry is CCc1nc2cc(OC3CCN(C(C)=N)CC3)ccc2n1Cc1ccc2ccc(C(=N)N)cc2c1
Output: 2.1

Input: Supply reported Ki belonging to this compound: CC(=N)N1CCC(N(CCCC(=O)O)c2ccc3nc(C)n(Cc4ccc5ccc(C(=N)N)cc5c4)c3c2)CC1
Output: 5

Input: Report Ki, nothing else, for this compound: CC(=N)N1CCC(N(CC(N)=O)c2ccc3nc(C)n(Cc4ccc5ccc(C(=N)N)cc5c4)c3c2)CC1
Output: 0.49

Input: Please supply the value of reported Ki for the item CCOC(=O)CCC(=O)N(c1ccc2c(c1)nc(C)n2Cc1ccc2ccc(C(=N)N)cc2c1)C1CCN(C(C)=N)CC1
Output: 5

Input: Provide Ki value for the following compound: CC(=N)N1CCC(Oc2ccc3nc(CCC(N)=O)n(Cc4ccc5ccc(C(=N)N)cc5c4)c3c2)CC1
Output: 0.59

Input: Provide only the value of recorded Ki for CCC(C)c1nc2cc(OC3CCN(C(C)=N)CC3)ccc2n1Cc1ccc2ccc(C(=N)N)cc2c1 (configuration not stated)
Output: 2.3

Input: For the compound CC(=N)N1CCC(Oc2ccc3nc(CCC(=O)O)n(Cc4ccc5ccc(C(=N)N)cc5c4)c3c2)CC1 , give its reported Ki.
Output: 2.67

Input: Dear colleague, please send me the reported Ki for COC(=O)CCCN(c1ccc2c(c1)nc(C)n2Cc1ccc2ccc(C(=N)N)cc2c1)C1CCN(C(C)=N)CC1 when you can.
Output: 6

Input: Please list Ki recorded for the compound CCCCc1nc2ccc(OC3CCN(C(C)=N)CC3)cc2n1Cc1ccc2ccc(C(=N)N)cc2c1
Output: 0.23

Input: Look up Ki of CCc1nc2ccc(OC3CCN(C(C)=N)CC3)cc2n1Cc1ccc2ccc(C(=N)N)cc2c1 and report it.
Output: 0.06

Input: Specify reported Ki for the compound shown: COC(=O)C(C)CN(c1ccc2nc(C)n(Cc3ccc4ccc(C(=N)N)cc4c3)c2c1)C1CCN(C(C)=N)CC1 (configuration not stated)
Output: 0.3

Input: Report measured Ki; entry is CCC(C)c1nc2ccc(OC3CCN(C(C)=N)CC3)cc2n1Cc1ccc2ccc(C(=N)N)cc2c1 (configuration not stated)
Output: 0.16

Input: Give a short answer stating reported Ki for CCOC(=O)CCC(=O)N(c1ccc2nc(C)n(Cc3ccc4ccc(C(=N)N)cc4c3)c2c1)C1CCN(C(C)=N)CC1 .
Output: 4.6

###

metric: pKi
Reminder that pKi is minus the log10 of a molar concentration.

Input: Specify pKi for COC(=O)CCCN(c1ccc2nc(C)n(Cc3ccc4ccc(C(=N)N)cc4c3)c2c1)C1CCN(C(C)=N)CC1 , system Serine protease 1 (Bos taurus).
Output: 6.59

Input: Answer with pKi of COC(=O)C(C)CN(c1ccc2c(c1)nc(C)n2Cc1ccc2ccc(C(=N)N)cc2c1)C1CCN(C(C)=N)CC1 (stereo not drawn) measured for Serine protease 1 (Bos taurus).
Output: 6.80

Input: Report the value of pKi obtained on Serine protease 1 (Bos taurus) for CC(=N)N1CCC(Oc2ccc3nc(C(C)(C)C)n(Cc4ccc5ccc(C(=N)N)cc5c4)c3c2)CC1 .
Sequence (P00760 whole entry): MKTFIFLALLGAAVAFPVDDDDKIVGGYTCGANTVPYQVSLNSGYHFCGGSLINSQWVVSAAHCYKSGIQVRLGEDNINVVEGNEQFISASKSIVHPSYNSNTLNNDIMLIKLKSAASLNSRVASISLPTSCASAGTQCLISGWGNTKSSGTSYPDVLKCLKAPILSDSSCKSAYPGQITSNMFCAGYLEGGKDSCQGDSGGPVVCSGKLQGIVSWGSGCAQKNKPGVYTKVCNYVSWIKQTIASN
Output: 8.15

Input: Report value only: pKi, Serine protease 1 (Bos taurus), COC(=O)C(C)CN(c1ccc2nc(C)n(Cc3ccc4ccc(C(=N)N)cc4c3)c2c1)C1CCN(C(C)=N)CC1 (stereo not drawn)
Output: 7.39

Input: Recall the reported pKi of COC(=O)CN(c1ccc2nc(C)n(Cc3ccc4ccc(C(=N)N)cc4c3)c2c1)C1CCN(C(C)=N)CC1 on Serine protease 1 (Bos taurus) and write it down.
Output: 7.96

Input: Report value only: pKi, Serine protease 1 (Bos taurus), CC(=N)N1CCC(Oc2ccc3c(c2)ncn3Cc2ccc3ccc(C(=N)N)cc3c2)CC1
Output: 8.09

Input: // fetch pKi; item: CC(=N)N1CCC(Oc2ccc3c(c2)nc(C)n3Cc2ccc3ccc(C(=N)N)cc3c2)CC1 ; system: Serine protease 1 (Bos taurus)
Output: 7.80

Input: GET pKi where system = Serine protease 1 (Bos taurus) and item = CC(=N)N1CCC(N(CC(C)C(=O)O)c2ccc3nc(C)n(Cc4ccc5ccc(C(=N)N)cc5c4)c3c2)CC1 (stereo not drawn)
Output: 7.33
